B1: HDV Ribozyme (parent)
chain: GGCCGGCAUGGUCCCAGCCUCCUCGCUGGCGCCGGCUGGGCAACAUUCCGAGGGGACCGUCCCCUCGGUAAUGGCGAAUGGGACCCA

Variants of: B1
testSummary: self-cleavage, relative activity (ratio to wild type); higher = more cleavage; co-transcriptional
Hi, to clarify the labels: 1.0 covers self-cleavage from 0.2 upward, 0.0 covers anything below 0.2.

Below are worked cases with known answers.
Exercise: Hi team, for U27C U47C , is the recorded self-cleavage at or above 0.2?
Key: 1.0

Exercise: Hi team, for C30A A83G , is the recorded self-cleavage at or above 0.2?
Key: 0.0

Exercise: Hi team, for C22G G55U , is the recorded self-cleavage at or above 0.2?
Key: 0.0

Exercise: Hi team, for C19A C75A , is the recorded self-cleavage at or above 0.2?
Key: 0.0

Exercise: Hi team, for U12C C26U , is the recorded self-cleavage at or above 0.2?
Key: 1.0

Further cases:
Exercise: Hi team, for U69C A87U , is the recorded self-cleavage at or above 0.2?
Key: 1.0

Exercise: Hi team, for C18G A83C , is the recorded self-cleavage at or above 0.2?
Key: 0.0

Exercise: Hi team, for G31U G59A , is the recorded self-cleavage at or above 0.2?
Key: 1.0

Exercise: Hi team, for G11U C48G , is the recorded self-cleavage at or above 0.2?
Key: 1.0

Exercise: Hi team, for U27A C32U , is the recorded self-cleavage at or above 0.2?
Key: 1.0

Exercise: Hi team, for `A71G` , is the recorded self-cleavage at or above 0.2?
Key: 1.0

Exercise: Hi team, for C30U G59C , is the recorded self-cleavage at or above 0.2?
Key: 1.0

Exercise: Hi team, for C18A G81C , is the recorded self-cleavage at or above 0.2?
Key: 0.0
